# Test system: Enterobacter cloacae
# test_description: Antimicrobial activity against Enterobacter cloacae isolate 140 containing PFGE genetic clone A expressing beta-lactamase KPC-2 and SHV-12 gene by Etest
# Type: functional
metric_name: MIC

Q: Look at this molecule and give its reported MIC. C[C@H]1COc2c(N3CCN(C)CC3)c(F)cc3c(=O)c(C(=O)O)cn1c23.C[C@H]1COc2c(N3CCN(C)CC3)c(F)cc3c(=O)c(C(=O)O)cn1c23.O
Ans: 0.094 mg/L

Q: Same read-out for C[C@@H](O)[C@H]1C(=O)N2C(C(=O)O)=C(SCCNC=N)C[C@H]12 [IMIPENEM ANHYDROUS] ?
Ans: > 32 mg/L

Q: Same read-out for CCn1cc(C(=O)O)c(=O)c2ccc(C)nc21 ?
Ans: 4 mg/L

Q: Same read-out for CCN1CCN(C(=O)N[C@@H](C(=O)N[C@@H]2C(=O)N3[C@@H]2SC(C)(C)[C@@H]3C(=O)O)c2ccccc2)C(=O)C1=O ?
Ans: ≥ 128 mg/L

Q: Same read-out for NCC[C@H](O)C(=O)N[C@@H]1C[C@H](N)[C@@H](O[C@H]2O[C@H](CN)[C@@H](O)[C@H](O)[C@H]2O)[C@H](O)[C@H]1O[C@H]1O[C@H](CO)[C@@H](O)[C@H](N)[C@H]1O ?
Ans: ≤ 2 mg/L

Q: Same read-out for CC(C)(O/N=C(\C(=O)N[C@@H]1C(=O)N2C(C(=O)[O-])=C(C[n+]3ccccc3)CS[C@H]12)c1csc(N)n1)C(=O)O ?
Ans: ≥ 64 mg/L

Q: Same read-out for C[C@@H](O)[C@H]1C(=O)N2C(C(=O)O)=C(S[C@@H]3CN[C@H](C(=O)Nc4cccc(C(=O)O)c4)C3)[C@H](C)[C@H]12 ?
Ans: > 32 mg/L

Q: Same read-out for C[C@@H](O)[C@H]1C(=O)N2C(C(=O)O)=C(S[C@@H]3CN[C@H](C(=O)N(C)C)C3)[C@H](C)[C@H]12 ?
Ans: 4 mg/L
